test: NCI Yeast Anticancer Drug Screen. Data for the sgs1 mgt1 strain (AID 161);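 also: 0% = growth of cultures given vehicle only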; conditions: S. cerevisiae sgs1 mgt1 strain, at 5.0 µM (retest, dose inferred, filed as 0.5), stronger effect = higher value
The panel holds about 79,000 compounds, 15% with a hit somewhere; the sample as a whole holds those more often.
Readout Label: growth inhibition (%)
State the answer as a number, implicitly in %.

Compound: CC(=O)OCC(=O)[C@H]1CC[C@H]2[C@@H]3CC=C4C[C@@H](O)CC[C@]4(C)[C@H]3CC[C@]12C
U: %
Quantitative Result: 60
--
Compound: Cc1cc(O)c(C(C)C)cc1Cl
U: %
Quantitative Result: -6
--
Compound: COc1cc(O)ccc1C(=S)SC
U: %
Quantitative Result: 5
--
Compound: CC1CP(c2ccccc2)(c2ccccc2)(c2ccccc2)OC1(C(=O)c1ccccc1)c1ccccc1 (stereo unspecified)
U: %
Quantitative Result: -21
--
Compound: O=C(C(=Cc1ccccc1)C(=O)c1ccccc1)c1ccccc1
U: %
Quantitative Result: 50

Read the next record carefully.
Fill blank: measured growth inhibition of the compound COC(=O)C#CC(=O)OC is ____.
-15

====

assay: NCI Yeast Anticancer Drug Screen. Data for the bub3 strain (AID 167); details: S. cerevisiae bub3 mutant strain, at 5.0 µM (retest, dose inferred, filed as 0.5)
Compounds without any hit were thinned out: in the full panel of roughly 79,000, 15% have a hit. Active and inactive are the calls of the source. Rule as the data show it: active = growth inhibition above about 70%; inactive = the rest.
Field 'call' accepts YES = active, NO = inactive

Past entries and their recorded results:
Compound: CCN(CC)C(=S)Sc1nc2ccccc2s1
Discrete Label: NO

Compound: Cc1ccc(S(=O)(=O)C23C(N=NC2(C)C)C3(C)C)cc1 (configuration not stated)
Discrete Label: NO

Compound: COc1ccc2c(c1)c[n+](C)c1c3cc(OC)c(OC)cc3ccc21
Discrete Label: NO

Compound: COc1ccc(/C=C2\C=Nc3ccccc32)cc1
Discrete Label: NO

Compound: CCn1c2ccccc2c2ccc(N=Cc3ccc(N(C)C)cc3)cc21
Discrete Label: NO

Compound: C=C(C)C(=O)Oc1ccc(N=Nc2ccccc2)ccc1=O
Discrete Label: NO

Kindly provide the recorded test outcome for the following compound: COC1OC2COC(c3ccccc3)OC2C(O)C1OS(=O)(=O)c1ccc(C)cc1 (configuration not stated)
NO

Kindly provide the recorded test outcome for the following compound: O=C1c2ccccc2C(=O)c2cc(S(=O)(=O)O)ccc21
NO

Kindly provide the recorded test outcome for the following compound: Cc1noc(-c2ccc([N+](=O)[O-])o2)n1
NO

Kindly provide the recorded test outcome for the following compound: CCCCN(CCCC)C(Cl)=Nc1ccccc1
NO

Kindly provide the recorded test outcome for the following compound: O=C(NO)c1cccnc1
NO

Kindly provide the recorded test outcome for the following compound: CCC[CH2][Sn]1([CH2]CCC)[O]N=C(c2ccccc2)C(c2ccccc2)[O]1 (configuration not stated)
NO

Kindly provide the recorded test outcome for the following compound: O=[N+]([O-])c1cccc2nc3ccccc3c(NCCN(CCO)CCO)c12
YES

Kindly provide the recorded test outcome for the following compound: Cc1c(N)nc(C(CC(N)=O)NCC(N)C(N)=O)nc1C(=O)NC(C(=O)NC(C)C(O)C(C)C(=O)NC(C(=O)NCCc1nc(-c2nc(C(=O)NCCCNCCCCN)cs2)cs1)C(C)O)C(OC1OC(CO)C(O)C(O)C1OC1OC(CO)C(O)C(OC(N)=O)C1O)c1cnc[nH]1 (configuration not stated)
YES
